Values compiled from paper PMC9062259.

- target_or_system: Ddi2 (Homo sapiens, UniProt Q5TDH0)
- Construct: His6-Ddi2
- Sequence (Q5TDH0 whole entry): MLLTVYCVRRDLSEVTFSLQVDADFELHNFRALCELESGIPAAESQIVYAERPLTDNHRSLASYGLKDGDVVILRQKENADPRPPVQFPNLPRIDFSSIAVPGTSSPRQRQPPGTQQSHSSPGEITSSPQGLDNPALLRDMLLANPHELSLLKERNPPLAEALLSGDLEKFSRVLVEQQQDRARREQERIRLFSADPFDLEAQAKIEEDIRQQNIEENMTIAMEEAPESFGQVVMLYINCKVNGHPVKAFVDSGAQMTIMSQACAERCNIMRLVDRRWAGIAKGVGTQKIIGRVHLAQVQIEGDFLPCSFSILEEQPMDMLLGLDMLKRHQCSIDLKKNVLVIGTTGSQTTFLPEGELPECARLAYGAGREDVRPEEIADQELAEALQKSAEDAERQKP
- protocol_summary: Inhibition of cleavage of fluorescently labeled ubiquitylated NeD-sfGFP by purified His6-Ddi2 (SDS-PAGE, fluorescence imaging)
property_name: EC50

Given Cc1c(O)cccc1C(=O)N[C@@H](CSc1ccccc1)[C@H](O)CN1C[C@H]2CCCC[C@H]2C[C@H]1C(=O)NC(C)(C)C , state its recorded EC50.
~40 µM
